- assayedSystem: T1, F3 domain of TLN2 (TLN2-F3) (UniProt Q71LX4 311-408)
- T1 chain: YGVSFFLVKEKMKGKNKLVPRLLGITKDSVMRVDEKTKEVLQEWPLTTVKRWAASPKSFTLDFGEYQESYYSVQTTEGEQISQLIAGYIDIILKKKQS
- testName: MST
No end group written: not given here.
measuredProperty: Kd
In your response, put the unit directly after the numeric value.

Request: // returns reported Kd for input {ATTO 488}-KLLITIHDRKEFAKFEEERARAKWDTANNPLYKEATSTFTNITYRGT (peptide, UniProt O54890 741-787, looked up, integrin β3 cytoplasmic tail; source: synthetic peptide (MPIB Core Facility)) [ATTO 488-labelled β3-CT (488–β3-CT)]
Result: 98 µM

Measured values drawn from paper PMC10716038 for this set.
